tested on: GC3 /CL; test: Cytotoxicity of N-substituted phenoxazines to tumor cells (clonogenic survival); type: cell-based; settings: Homo sapiens, 168 h, 7 days, 37° C., read-out: IC50 (50% reduction in clonogenic survival)
Assign pIC50 to each entry below.
Schema: pIC50 number; meaning minus log10 of the concentration expressed in molar units.

Ask: # pIC50 lookup, item OCCN1CCN(CCCCN2c3ccccc3Oc3ccccc32)CC1 [Compound 13]
Reply: 5.15

Ask: Follow-up entry: c1ccc2c(c1)Oc1ccccc1N2CCCN1CCOCC1 [Compound 4, 10-(3'-N-morpholinopropyl)phenoxazine]
Reply: 4.40

Ask: Follow-up entry: OCCN(CCO)CCCN1c2ccccc2Oc2ccccc21 [Compound 3]
Reply: 4.43

Ask: Follow-up entry: ClCCCN1c2ccccc2Oc2ccccc21 [Compound 1, 10-(3'-chloropropyl)-phenoxazine]
Reply: 4.08

Hello, the source for this data is patent US5371081A, in case you need it.
